- Test system: Hemoglobin (Hgb)
- assaySummary: Lookup table: marker validity (nadir) window, Hemoglobin (Hgb)
- Format: in vivo
- experimentalConditions: upper limit of nadir range, days elapsed between current dose and marker
compounds and their reported Hemoglobin (Hgb) UL
Numeric answer only, unit days assumed.

Completed entries (count: 4):
N.N.O=C([O-])C1(C(=O)[O-])CCC1.[Pt+2] [Carboplatin]    21
N.N.[Cl][Pt][Cl] [Cisplatin]    23
CC(=O)O[C@H]1C(=O)[C@@]2(C)[C@H]([C@H](OC(=O)c3ccccc3)[C@]3(O)C[C@H](OC(=O)[C@H](O)[C@@H](NC(=O)c4ccccc4)c4ccccc4)C(C)=C1C3(C)C)[C@]1(OC(C)=O)CO[C@@H]1C[C@@H]2O [Taxol]    11
CC(=O)O[C@@]12CO[C@@H]1C[C@H](O)[C@@]1(C)C(=O)[C@H](O)C3=C(C)[C@@H](OC(=O)[C@H](O)[C@@H](NC(=O)OC(C)(C)C)c4ccccc4)C[C@@](O)([C@@H](OC(=O)c4ccccc4)[C@H]21)C3(C)C [Taxotere]    11

## Input # value lookup — system Hemoglobin (Hgb), readout Hemoglobin (Hgb) UL, item Nc1ccn([C@@H]2O[C@H](CO)[C@@H](O)C2(F)F)c(=O)n1 [Gemzar]
## Output 10
